- Tested on: UACC-257 melanoma
- Experiment summary: NCI tumour cell line growth inhibition, 48 h
*1 amine or outer side, *2 acyl side, *3 side chain or, on linkers, in order; H or OH if unused. Where a SMILES comes first, the peptide text is derived from it. The star is where a group is joined. γGlu = O=C(O)[CH](CCC(=O)[*:2])N[*:1]; NHOH = ON*
Each entry below lists one item and its recorded TGI value.

Compound	Test target	Outcome measure	Result
[N-]=[N+]=NC1C(Cl)C(=O)NC(=O)N1[C@H]1C[C@H](O)[C@@H](CO)O1 (stereo not given in full)	UACC-257 melanoma	TGI	> 100 µM
COc1ccc2c(c1[N+](=O)[O-])CC[C@@H]1[C@@H]2CC[C@]2(C)C(=O)CC[C@@H]12	UACC-257 melanoma	TGI	> 1000 µM
O=C(Nc1ccc(Cl)cc1)c1cc(S(=O)(=O)Nc2nc3ncccc3[nH]2)c(SSc2cc(Cl)c(C(=O)Nc3ccc(Cl)cc3)cc2S(=O)(=O)Nc2nc3ncccc3[nH]2)cc1Cl	UACC-257 melanoma	TGI	> 100 µM
Cc1ccc(/C=C/C(=O)c2ccc(F)cc2)s1	UACC-257 melanoma	TGI	14.1 µM
O=C(Nc1ccc(Nc2ccc3c(c2)C(=O)c2ccccc2C3=O)c2c1C(=O)c1ccccc1C2=O)c1ccccc1	UACC-257 melanoma	TGI	> 100 µM
C=C1C(=O)O[C@@H]2C[C@@]3(C)CCC[C@H](C)C3=C[C@H]12 (tested in a mixture with another compound)	UACC-257 melanoma	TGI	3.75 µM

Let me check: Cc1c2ccccc2c(/C=N/NC(=O)CSCC(=O)N/N=C/c2c3ccccc3c(C)c3ccccc23)c2ccccc12 , system UACC-257 melanoma, measured TGI is > 100 µM

Let me check: C/C(=C1\C(=O)Nc2ccccc21)c1cccc(/C(C)=C2/C(=O)Nc3ccccc32)n1 , system UACC-257 melanoma, measured TGI is 86 µM

Let me check: NC(CCC(=O)NC(CCC(=O)NO)C(=O)NCC(=O)O)C(=O)O (stereo not given) (γGlu-Glu(NHOH)-Gly-OH; configuration not given here) , system UACC-257 melanoma, measured TGI is > 100 µM

Let me check: O=C1CC(Nc2ccccc2)c2c(Cl)sc(Cl)c21 (stereo not given) , system UACC-257 melanoma, measured TGI is 3.86 µM

Let me check: C/C(=N/NC(=S)N1CCCCCC1)c1cccc(/C(C)=N\NC(=S)N2CCCCCC2)n1 , system UACC-257 melanoma, measured TGI is 3.45 µM

Let me check: CCOc1cc2c(cc1OC)c[n+](C)c1c3cc(OC)c(OC)cc3ccc21 , system UACC-257 melanoma, measured TGI is > 100 µM

Let me check: COc1ccc(OC)c([N+](=O)[O-])c1-c1nc2sc(Cl)cn2c1/C=N/N=C(N)N , system UACC-257 melanoma, measured TGI is 37.5 µM

Let me check: COc1ccc2c(c1)c(-c1ccc(-c3cn(C)c4ccc(OC)cc34)s1)cn2C , system UACC-257 melanoma, measured TGI is > 100 µM

Let me check: NCC(=O)N[C@H]1c2ccsc2/C(=N/O)[C@H]1O , system UACC-257 melanoma, measured TGI is > 100 µM

Let me check: OC1CCN2Cc3ccccc3N=C12 (stereo not given) , system UACC-257 melanoma, measured TGI is > 100 µM

Let me check: N#C/C=C(/NC(=O)Nc1ccccc1)N1CCCC1 , system UACC-257 melanoma, measured TGI is > 100 µM

Let me check: CC(C)Cn1cnc2c(N)nc3ccccc3c21 , system UACC-257 melanoma, measured TGI is > 91.5 µM

Let me check: O=C1O/C(=C(\Br)c2ccc([N+](=O)[O-])cc2)c2ccccc21 , system UACC-257 melanoma, measured TGI is > 100 µM

Let me check: CC1(N2CCOCC2)CC2C(=[N+]1[O-])CCC/C2=N/O (stereo not given) , system UACC-257 melanoma, measured TGI is > 100 µM
